# credit: the supplement of paper PMC8007513

The reader will find reported growth yield values listed item by item below.
Test system: Trichoderma virens ATCC 9645
Experimental protocol: growth yield (OD600) with compound + IPBC relative to untreated control; higher = less growth inhibition
Conditions: compound concentration: 100 uM; IPBC concentration: 200 ng/ml; 72 h
Where a name gives a salt, the structure may show the parent alone. Out of some 1,300 compounds screened, about 130 (10%) showed an effect of 50% or more. The sample as a whole holds a higher share of strong results than the screen did.
// note: answer is a bare numeric in %

In the examples that follow, each entry is paired with its recorded growth yield.
Compound	growth yield (%)
Cc1cccc(C)c1NC1=NCCCS1 [Xylazine] + CCCCNC(=O)OCC#CI [3-iodo-2-propynyl butylcarbamate (IPBC)]	88.8
CCn1cc(C(=O)O)c(=O)c2cnc(N3CCNCC3)nc21 [Pipemidic acid] + CCCCNC(=O)OCC#CI [3-iodo-2-propynyl butylcarbamate (IPBC)]	90.1
CCn1cc(C(=O)O)c(=O)c2ccc(C)nc21 [Nalidixic acid sodium salt] + CCCCNC(=O)OCC#CI [3-iodo-2-propynyl butylcarbamate (IPBC)]	100

**Query** growth yield for Nc1cc(N2CCCCC2)nc(N)[n+]1[O-] [Minoxidil] + CCCCNC(=O)OCC#CI [3-iodo-2-propynyl butylcarbamate (IPBC)] ?
**Result** 93.5

**Query** Now the same for CCn1cc(C(=O)O)c(=O)c2cnc(N3CCCC3)nc21 [Piromidic acid] + CCCCNC(=O)OCC#CI [3-iodo-2-propynyl butylcarbamate (IPBC)]
**Result** 99.5

**Query** Again, but for CC(CN(C)C)CN1c2ccccc2CCc2ccccc21 (stereo unspecified) [Trimipramine maleate salt] + CCCCNC(=O)OCC#CI [3-iodo-2-propynyl butylcarbamate (IPBC)]
**Result** 94
